# Subject of test: Tubulin (Homo sapiens) (UniProt P68371+Q9H4B7+P0DPH7+P68366+Q13509+Q71U36+P04350+Q3ZCM7+P07437+P68363+Q9BQE3+Q6PEY2+Q13885+Q9BVA1+Q9BUF5)
# Assay method text: Inhibition of tubulin polymerization (unknown origin) at 10 uM relative to control
# Type: protein-complex assay
Readout: inhibition (%)
Give the quantity in %, number only.

Write down inhibition measured for item `COc1ccc(C(=O)c2[nH]c3cc(Cl)ccc3c2NC(=O)CNc2ccc(F)cc2)cc1`
43

New cases:
Write down inhibition measured for item `COc1ccc(NCC(=O)Nc2c(C(=O)c3ccc(OC)cc3)[nH]c3ccccc23)cc1`
7

Write down inhibition measured for item `O=C(CNc1ccccc1)Nc1c(C(=O)c2ccccc2)[nH]c2cc(Cl)ccc12`
46

Write down inhibition measured for item `COc1ccc(C(=O)c2[nH]c3cc(Cl)ccc3c2NC(=O)CNc2ccc(C)cc2)cc1`
29
